ASSAY PROTOCOL: yeast display, Sf9 membrane polyspecificity reagent, FACS + sequencing; frameworks hold sequencing errors

{"columns": ["SEQ", "polyreactivity (PSR sort gate)"],
 "data": [
  ["QVQLVESGGGVVQAGGSLRLSCAATGRIFGVYAMGWYRQAPGKERELVAAISSTGGSTYYADSVKGRFTISRDNAKNTVYLQMNSLKPEDTAVYYCEYDYWGQGSQVTVSS", "low polyreactivity"],
  ["QVQLVQSGGGLVQAGGSLRLSYAASGRIFSPNAMGWYRQAPGKERELVAAISYRGANTYYADSVKGRFTISRDNAKNTVDLQMHSLKPEDTAVYYCATRSTHYWGQGTQVTVSS", "high polyreactivity"],
  ["QVHLVVSGGGLVQAGGSLRLMCAASGSTFKYYVMGWYRQAPGKERELVAAISGSGGSKYYADSVKGRFTISRDNAKNTVYLQMNSLIPEDTAVYYCAAGRLRGPGYYFTFDYWGQGTQVTVSS", "high polyreactivity"],
  ["QVQLVESGGGLVQAGGSLRLSCAASGYILTHYAMGWYRQAPGKERELVAAITRVGNTNYADSVKGRFTISRDNAKNTVYLQMNSLKPEDTAVYYCAADGVASLFGDPPTEFDYWGQGTQVTVSS", "low polyreactivity"],
  ["QVQLVESGGGLVQAGGSHRLSCAASGFIFSYYAKGRYRQAPGKERELVAAISSSGGTTYADSVKGRFTISRDNAKNTVYLHMNSLKPEDTAVYYCARVQYWFYKPMYYWGQGTQVTVSS", "high polyreactivity"],
  ["QVQLVESGGVLVQAGGSLRLSCAASGRTFRYYAMGWYRQAPGKERELVAAITVTVTSTFYADSVKGRFTISRDNAKNTVYLQMNSLKPEDTAVYYCAKVDRQSPGQYYYWGQGTQVTVSS", "low polyreactivity"],
  ["QVQLVESGGGLVQAGGSLRLSCAASGFIFRPYVMGWYRQAPGKERELVAAISRSGSSTYYADSVKGRFTISRDNAKNTVYLQMNSLKPEDTAVYYCARRTSQEFDYWGQGTQVTVSS", "high polyreactivity"],
  ["QDQLVESGGGLVQAGGSLRLSCAASGSTFAYYAMGWYRQAPGKERELVAAITIDGRTSYADSVKGRFTISRDNAKNTVYLQMISLNQVDTAVYYCARGYFPYGYPWRWGYDRFDYWGQGTQVTVSS", "low polyreactivity"],
  ["QVQLVESGGGLVQAGGSLRLSCAASGRTFRPYAMGWYRQAPGKERELVAVISYRGGSTYYADSVKGRFTISRDNAKNTVYLQMNSLKPEDTAVYYCNAQAGWFSRLYYWGQGTQVTVSS", "high polyreactivity"],
  ["QVQHVESGGGLVQAGRSLRLSCAATGRTFGSNAMGWYRQAPGKERELVAAISLRGGRTYYADSVKGRFTISRDNAKNTVYLQMNSLKPEDTAVYYCNAVHYLYGARSRLTYDYWGQGTQVTVSS", "high polyreactivity"],
  ["QVQLVESGGGLVQAGGSLRLSCAASRRTFYEYAMGWYRQAPGKERELVAAITRSGGSTYYADSVKGRFTISRDNAKNTVYLQMNSLKPEDTAVYYCAAYRHQYRVRYYTAYDYWGQGTQVTVSS", "high polyreactivity"],
  ["QVQLVESGGGLVQAGGSLRLSCAASGSIFDAYAMGWYRQAPGKERELVAAITTGGGSTYYADSVMGRFTISRDNAKNTVYLQMNSLKPEDTAVYYCARDYGKYKGYYWGQGTQVTVSS", "low polyreactivity"],
  ["QVHLVESGGGLVQAGGSLRLSCAASGSTIRAYAMGWNRQAHVKERELVAAISYSGDSTYYADSVKGRFTISRDNAKNTVYLQMNSLKPEDTAVYYCAADYSYRHYEYDYWGQGTQVSVSS", "low polyreactivity"],
  ["QVQLVESGGGLVQAGGSLRLSCAASGRTFSHYAMGWYRKAPGKERELVDTITRNGGITYYADSVKGRFTISRDNAKNTVYLQMNSLKPEDTAVYYCNTETYHVRRLFDYWGQGTQVTVSS", "low polyreactivity"],
  ["QVQLVESGGGLVQAGGSLRLICAASGFTLRHYAMGWSRQAPGKERELVAAITKSGSSTYYADSVKGRFTISRDNAKNTVYLQMNSLKPEDTAVYYCAKKTSYSYAFRYDYWGQGTQVTVSS", "high polyreactivity"],
  ["QVQLVESGGGLVQAGGSLRLTCAASGYTLSVNAKGWSRQAPGKEMDLVATNDFGGGSTYYADSVKGRFTISRDNAKNTVYLQMNSLKREDTAVYYCATDGGAAWGRYYWDYGYWGQGTQVTVSS", "low polyreactivity"],
  ["QVQLVESGGGLVQAGGSLRLSCAASGLIFLGYARGWYRQSPGKERELVASIRTGGSTSYADSVKGRFTISRDNAKNTVYLQMNSLKPEDTAVYYCAADRGRPNLPGDYWGQGTQVTVSS", "low polyreactivity"],
  ["QVQLVESGGGLVQAGGSLRLSCAASGFISYPYAMGWSRPAPGKERELVAAISSSGGSTYYADSVKGRFTISRDNAKNTVYLQMNSLIPEDTAVYYCAARGFYRSYYWGQGTHVTVSS", "high polyreactivity"],
  ["QVQLVESGGGLVQAGGSLRISCAASGMIFDWYTMGWYRQAPGKERELVAAISWRGGRTYYADSVKGRFTISRDNAQNTVYLQMNSLKPEDTAVYYCAAEGLFTGRVSRFADDHWGQGTQVTVSS", "low polyreactivity"],
  ["QVQLVESGGGLVQAGGSLRLSCAASGNTFGYYAMGWYRQAPGKERELVAAITWNGDRTYYADSVKGRFTISRDNAKNTVYLQMNSLKPEDTAVYYCNKVNPYRHGYWGQGTQVTVSS", "high polyreactivity"],
  ["QVQLVESGGGLVQAGGSLRLSCAASGSIFPSYAMGWYRQAPGKERELVAVINSGGSTYYADSVKGRFTISRDNAKNTVYFQMNSLKPEDTAVYYCAAYRRRYPRFDYWGQGTQVTVSS", "high polyreactivity"]
]}

FYI, the data here is from the nanobody polyreactivity screen of Harvey et al. (2022).
